The measured values listed here are drawn from patent US9624288B2.

- system: EGRAFY mutant (R91A, F188Y; SEQ ID NO: 15) (Dickeya chrysanthemi, UniProt P0C7B7, F187Y/INS163G/R91A)
- test summary: Two-electrode voltage clamp, amine agonist activation of the EGRAFY mutant in oocytes
measured quantity: EC50 (nM)

> print(dat)
   smiles.text  measured.quantity  assay.result
1         CCCN               EC50          1900
